Attribution: paper PMC3828642

biological target: 1-aminocyclopropane-1-carboxylic acid oxidase (ACCO1) (Malus domestica); experiment: steady-state kinetics, ethylene assay by GC, double reciprocal plot; UV/Vis spectrum; type: biochemical; set-up: His-Tag fusion protein expressed in E. coli
Sequence (Q00985 whole entry, the tested form may be a part): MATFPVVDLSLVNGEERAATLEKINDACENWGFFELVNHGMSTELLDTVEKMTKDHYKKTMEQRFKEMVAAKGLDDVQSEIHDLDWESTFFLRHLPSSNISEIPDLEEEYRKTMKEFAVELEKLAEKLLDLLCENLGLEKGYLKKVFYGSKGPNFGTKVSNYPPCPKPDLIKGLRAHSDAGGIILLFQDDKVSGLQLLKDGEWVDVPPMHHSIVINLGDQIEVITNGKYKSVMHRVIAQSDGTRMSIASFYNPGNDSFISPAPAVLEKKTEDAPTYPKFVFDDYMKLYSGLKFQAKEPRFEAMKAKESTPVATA
readout-kind: pKi
Reminder that pKi means the negative base-10 logarithm of the concentration expressed in mol/L.

Qu. For Cc1ncc(COP(=O)(O)O)c(C=O)c1O [Pyridoxal-5′-phosphate] , what is its reported pKi?
Ans. 3.70

----------
biological target: 1-aminocyclopropane-1-carboxylic acid oxidase (ACCO1) (Malus domestica); test: steady-state kinetics, ethylene assay by GC; format: biochemical; set-up: purified ACCO fusion protein
readout-kind: Ki (µM)
The answer is to be given in µM; state only the numeric part.

Qu. For "O=C(O)[C@@H](O)[C@H]1OC(=O)[C@H](O)[C@H]1O" , what is its reported Ki?
Ans. 300
